- Tested on: Saccharomyces cerevisiae;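 further: PSI is a weighted mean of sequencing reads over stability bins, variants kept only with over 10 reads, mCherry proximal and sfGFP distal, peptide attached via GGGS linker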
- ASSAY REMARKS: protein stability index of tFT-peptide fusion (C-terminal peptide) (PSI (0-1 scale)); higher = more stable (slower turnover)
- CONDITION DETAILS: genetic background: wild type; temperature: 30 C
METRIC: protein stability index
No unit in the answer, only the number.

Before answering, review these 8 worked examples.
AFRGFLSVNFNL
0.734
IIKKKKKIKRNN
0.683
ISYYDVYLSFLF
0.745
ETKFLVDRKTDI
0.67
CDSSSVGYLVVR
0.655
FLSSPPPPLRVP
0.694
VGYHCIVGVIFL
0.524
PFECRRPFPPPA
0.764

### Prompt // query protein stability index value for entry LLFSPTRVFLRY
### Response 0.49

### Prompt // query protein stability index value for entry AGLRMALGVGIP
### Response 0.698

### Prompt // query protein stability index value for entry NLKLIRSEYNLN
### Response 0.658
